# TESTED_ON: T1, monkey TIM-3 on CHOK1 stable cell line (CHOK1-cTIM-3) (monkey)
# T1 chain: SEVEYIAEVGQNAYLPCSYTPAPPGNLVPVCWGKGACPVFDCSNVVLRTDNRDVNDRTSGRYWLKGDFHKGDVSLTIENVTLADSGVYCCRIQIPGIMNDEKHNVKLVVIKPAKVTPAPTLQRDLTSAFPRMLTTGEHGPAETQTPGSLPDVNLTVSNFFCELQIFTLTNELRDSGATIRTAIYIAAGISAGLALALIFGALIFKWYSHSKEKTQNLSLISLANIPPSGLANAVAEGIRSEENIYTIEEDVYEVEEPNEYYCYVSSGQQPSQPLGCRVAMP
# RUN_DESCRIPTION: FACS, CHOK1-cTIM-3 cells, 0.013 nM antibody
ASSAY_ENDPOINT: Mean fluorescence intensity
Please give the numeric answer without any surrounding text.

BINDER	Mean fluorescence intensity
57F4E5 fully human TIM-3 antibody (human IgG4, kappa) (antibody, V domains shown) VH: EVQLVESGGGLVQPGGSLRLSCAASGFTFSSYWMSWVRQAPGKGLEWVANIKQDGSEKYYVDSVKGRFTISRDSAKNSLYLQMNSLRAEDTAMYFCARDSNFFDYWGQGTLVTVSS VL: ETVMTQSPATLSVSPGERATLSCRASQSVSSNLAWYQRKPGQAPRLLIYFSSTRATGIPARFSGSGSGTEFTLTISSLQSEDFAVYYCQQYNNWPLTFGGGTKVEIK	11.4
34B6D8 fully human TIM-3 antibody (human IgG4, kappa) (antibody, V domains shown) VH: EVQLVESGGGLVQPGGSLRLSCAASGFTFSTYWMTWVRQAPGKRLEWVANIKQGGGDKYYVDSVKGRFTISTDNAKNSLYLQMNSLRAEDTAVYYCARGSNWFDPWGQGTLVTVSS VL: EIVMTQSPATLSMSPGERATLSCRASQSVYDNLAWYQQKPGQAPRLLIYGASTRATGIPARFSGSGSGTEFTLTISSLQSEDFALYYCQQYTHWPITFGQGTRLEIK	12.7

Please turn your attention to the following entry.
In: Report measured Mean fluorescence intensity; entry is 134H3G6 fully human TIM-3 antibody (human IgG4, kappa) (antibody, V domains shown) VH: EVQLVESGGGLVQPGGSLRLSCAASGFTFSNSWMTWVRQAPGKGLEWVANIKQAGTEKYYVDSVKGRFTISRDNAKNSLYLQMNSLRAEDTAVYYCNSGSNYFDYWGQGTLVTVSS VL: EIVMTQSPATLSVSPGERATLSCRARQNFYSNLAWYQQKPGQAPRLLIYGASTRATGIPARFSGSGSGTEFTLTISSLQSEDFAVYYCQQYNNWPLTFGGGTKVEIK
Out: 16.8
